src = patent US20220281831A1

Answer each item with its documented pIC50.
- STUDY_SYSTEM: His-tagged CRBN-DDB1 complex (Homo sapiens)
- Sequence (Q96SW2 whole entry): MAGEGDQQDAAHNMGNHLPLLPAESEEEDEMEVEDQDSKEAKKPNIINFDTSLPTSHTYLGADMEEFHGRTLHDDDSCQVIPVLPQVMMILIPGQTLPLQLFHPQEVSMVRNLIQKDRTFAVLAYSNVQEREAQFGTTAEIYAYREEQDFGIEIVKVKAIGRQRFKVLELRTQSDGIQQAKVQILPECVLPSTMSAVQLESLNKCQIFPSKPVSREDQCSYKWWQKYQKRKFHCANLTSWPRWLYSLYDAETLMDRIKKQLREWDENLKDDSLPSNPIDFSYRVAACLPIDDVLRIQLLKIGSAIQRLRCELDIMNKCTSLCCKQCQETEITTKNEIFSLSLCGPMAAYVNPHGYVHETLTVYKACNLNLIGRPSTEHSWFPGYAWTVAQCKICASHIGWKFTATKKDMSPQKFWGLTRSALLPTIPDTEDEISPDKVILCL
- Sequence (Q16531 whole entry partner): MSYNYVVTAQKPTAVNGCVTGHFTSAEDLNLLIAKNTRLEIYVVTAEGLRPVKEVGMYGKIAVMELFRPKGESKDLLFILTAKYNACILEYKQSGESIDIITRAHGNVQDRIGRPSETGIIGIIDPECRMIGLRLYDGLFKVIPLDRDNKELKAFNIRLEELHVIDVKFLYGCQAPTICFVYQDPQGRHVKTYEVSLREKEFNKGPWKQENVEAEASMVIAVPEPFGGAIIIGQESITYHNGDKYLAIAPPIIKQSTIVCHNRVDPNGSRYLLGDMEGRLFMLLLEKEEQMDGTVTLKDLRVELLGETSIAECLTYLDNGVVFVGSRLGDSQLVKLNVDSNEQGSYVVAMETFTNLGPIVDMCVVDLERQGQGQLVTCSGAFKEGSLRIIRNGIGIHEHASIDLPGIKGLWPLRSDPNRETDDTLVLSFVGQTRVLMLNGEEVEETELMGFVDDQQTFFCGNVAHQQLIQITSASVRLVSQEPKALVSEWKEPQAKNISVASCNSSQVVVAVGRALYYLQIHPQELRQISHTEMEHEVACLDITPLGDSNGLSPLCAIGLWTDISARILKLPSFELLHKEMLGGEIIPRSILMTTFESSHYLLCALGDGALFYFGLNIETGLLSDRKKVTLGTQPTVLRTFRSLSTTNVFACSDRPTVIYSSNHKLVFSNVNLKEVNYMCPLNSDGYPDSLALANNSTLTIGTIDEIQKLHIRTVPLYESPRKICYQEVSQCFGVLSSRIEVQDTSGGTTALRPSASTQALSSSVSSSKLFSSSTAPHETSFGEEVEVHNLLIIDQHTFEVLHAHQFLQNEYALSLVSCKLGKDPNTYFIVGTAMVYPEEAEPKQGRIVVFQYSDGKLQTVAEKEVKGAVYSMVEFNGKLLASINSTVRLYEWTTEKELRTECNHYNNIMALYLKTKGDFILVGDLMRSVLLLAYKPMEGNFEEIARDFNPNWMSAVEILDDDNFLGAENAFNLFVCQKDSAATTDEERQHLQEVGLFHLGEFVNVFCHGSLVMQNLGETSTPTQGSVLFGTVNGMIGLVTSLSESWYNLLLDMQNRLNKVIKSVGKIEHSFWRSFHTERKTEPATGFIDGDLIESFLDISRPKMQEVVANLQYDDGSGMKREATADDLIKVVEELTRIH
- ASSAY_REMARKS: Time-Resolved Fluorescence Resonance Energy Transfer (TR-FRET / HTRF) CRBN binding assay, displacement of Cy5-labeled thalidomide
- MEASUREMENT_PARAMETERS: His-CRBN-DDB1, Cy5-thalidomide 8 nM, 1 hour room temperature
pIC50: −log10 of the molar value.

- COMPOUND: "Cc1ncoc1-c1ccc2c(c1)C(=O)NC(=O)C2 [Compound I-6]"
  pIC50: "< 4.00"
- COMPOUND: "O=C1Cc2cccc(F)c2C(=O)N1 [Compound I-75]"
  pIC50: "4.52 to 5.00"
- COMPOUND: "Cc1ccc2c(c1)CC(=O)NC2=O [Compound I-79]"
  pIC50: "4.00 to 4.52"

Each compound below has a reported value. Please supply its pIC50.
1. O=C1CC2(CCN(c3ccc(OCc4ccccc4)cc3)CC2)CC(=O)N1 [Compound I-91]
2. O=C1NC(=O)[C@@H]2CN(C(=O)C3CC3)C[C@H]12 [Compound I-306]
3. O=C1NC(=O)[C@@H]2CN(Cc3ccc(Oc4ccccc4)cc3)C[C@H]12 [Compound I-311]
4. O=C1NC(=O)c2cc(NC(=O)N3CCCCC3)ccc21 [Compound I-283]
5. COc1cccc(C(=O)N2C[C@@H]3C(=O)NC(=O)[C@@H]3C2)n1 [Compound I-165]

OUTPUT:
1. < 4.00
2. < 4.00
3. 4.00 to 4.52
4. < 4.00
5. < 4.00

Each compound below has a reported value. Please supply its pIC50.
1. O=C1NC(=O)[C@@H]2CN(c3ccccc3Cl)C[C@H]12 [Compound I-153]
2. Cn1c(=O)[nH]c(=O)c2cc(Br)ccc21 [Compound I-59]
3. CCOC(=O)c1cccc(N2CCC3(CC2)CC(=O)NC(=O)C3)c1 [Compound I-96]

OUTPUT:
1. < 4.00
2. < 4.00
3. < 4.00

Each compound below has a reported value. Please supply its pIC50.
1. CN(C)c1ccc(CN2CCC3(CC2)CC(=O)NC(=O)C3)cc1 [Compound I-332]
2. CC(C)(C)OC(=O)NCCCC#Cc1cccc(Oc2cccc3c2C(=O)NC(=O)C3)c1 [Compound I-221]
3. O=C1CC2(CCN(c3ccc4c(c3)CCO4)CC2)CC(=O)N1 [Compound I-118]
4. CC(C)(C)OC(=O)NCc1ccc(N2C[C@@H]3C(=O)NC(=O)[C@@H]3C2)cc1 [Compound I-145]
5. COC(=O)c1ccc(N2CCC3(CC2)CC(=O)NC(=O)C3)cc1 [Compound I-162]
6. CNC(=O)c1cccc(N2C[C@@H]3C(=O)NC(=O)[C@@H]3C2)c1 [Compound I-177]

OUTPUT:
["< 4.00", "> 5.00", "< 4.00", "< 4.00", "< 4.00", "< 4.00"]
